Hey, just so you know, these numbers are from patent US20250368745A1.

# target.of.assay: T1, cynomolgus IL-18BP (cynomolgus monkey)
# T1 construct: Generated in-house; also called cyIL-18BP; cyno IL-18BP
# T1 chain: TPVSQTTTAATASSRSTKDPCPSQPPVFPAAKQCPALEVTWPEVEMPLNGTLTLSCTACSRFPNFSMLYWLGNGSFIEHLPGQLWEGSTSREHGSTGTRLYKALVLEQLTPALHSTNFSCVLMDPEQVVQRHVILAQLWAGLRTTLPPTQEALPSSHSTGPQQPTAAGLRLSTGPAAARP
# assay.notes: BLI single-concentration screen, apparent KD
metric.name: Kd (nM)
Express the result in nM but write the number alone.

Looking up SA301a heavy chain variant N33bY, C34S (antibody, human IgG1, V domains shown, library variant, human IgG1/kappa, from supernatant) VH: QVQLQESGPGLVKPSQTLSLTCTVSGYSITSDYYSHWIRQPPGKGLEWIGYIHYSGSTNYNPSLKSRVTISRDTSKNQFSLKLSSVTAADTAVYYCARNYGSIYVNYFDYWGQGTLVTVSS VL: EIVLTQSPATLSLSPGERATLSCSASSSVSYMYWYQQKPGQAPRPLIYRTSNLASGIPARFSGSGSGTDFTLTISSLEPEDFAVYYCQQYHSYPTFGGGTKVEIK , I see its Kd listed as 0.9

Recorded result, SA301a heavy chain variant N33bL, C34S (antibody, human IgG1, V domains shown, library variant, human IgG1/kappa, from supernatant) VH: QVQLQESGPGLVKPSQTLSLTCTVSGYSITSDYLSHWIRQPPGKGLEWIGYIHYSGSTNYNPSLKSRVTISRDTSKNQFSLKLSSVTAADTAVYYCARNYGSIYVNYFDYWGQGTLVTVSS VL: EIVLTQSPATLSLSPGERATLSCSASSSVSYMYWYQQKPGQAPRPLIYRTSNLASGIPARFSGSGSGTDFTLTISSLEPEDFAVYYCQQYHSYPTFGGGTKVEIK , Kd: 0.6

Per the record, SA301a heavy chain variant N33bM, C34S (antibody, human IgG1, V domains shown, library variant, human IgG1/kappa, from supernatant) VH: QVQLQESGPGLVKPSQTLSLTCTVSGYSITSDYMSHWIRQPPGKGLEWIGYIHYSGSTNYNPSLKSRVTISRDTSKNQFSLKLSSVTAADTAVYYCARNYGSIYVNYFDYWGQGTLVTVSS VL: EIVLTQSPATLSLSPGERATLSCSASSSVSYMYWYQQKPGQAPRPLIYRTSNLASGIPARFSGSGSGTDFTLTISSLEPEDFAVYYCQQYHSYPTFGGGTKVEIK has Kd of 1.4

Briefly, Kd measured for heavy chain library variant C34L (antibody, V domains shown) VH: QVQLQESGPGLVKPSQTLSLTCTVSGYSITSDYNLHWIRQPPGKGLEWIGYIHYSGSTNYNPSLKSRVTISRDTSKNQFSLKLSSVTAADTAVYYCARNYGSIYVNYFDYWGQGTLVTVSS VL: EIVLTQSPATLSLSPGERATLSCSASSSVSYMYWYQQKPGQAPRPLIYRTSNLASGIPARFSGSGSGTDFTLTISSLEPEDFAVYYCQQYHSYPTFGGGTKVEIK : 0.3

***
get_value(item= SA301a heavy chain variant N33bG, C34S (antibody, human IgG1, V domains shown, library variant, human IgG1/kappa, from supernatant) VH: QVQLQESGPGLVKPSQTLSLTCTVSGYSITSDYGSHWIRQPPGKGLEWIGYIHYSGSTNYNPSLKSRVTISRDTSKNQFSLKLSSVTAADTAVYYCARNYGSIYVNYFDYWGQGTLVTVSS VL: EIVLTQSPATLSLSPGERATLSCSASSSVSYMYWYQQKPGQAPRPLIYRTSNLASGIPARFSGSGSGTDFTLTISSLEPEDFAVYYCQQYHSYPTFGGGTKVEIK , readout=Kd) returns 0.5
